- Experimental System: ERα (Homo sapiens)
- Construct: made using a breast cancer cell ERα in cell western assay; host or cells: MCF7
- Sequence (P03372 1-595): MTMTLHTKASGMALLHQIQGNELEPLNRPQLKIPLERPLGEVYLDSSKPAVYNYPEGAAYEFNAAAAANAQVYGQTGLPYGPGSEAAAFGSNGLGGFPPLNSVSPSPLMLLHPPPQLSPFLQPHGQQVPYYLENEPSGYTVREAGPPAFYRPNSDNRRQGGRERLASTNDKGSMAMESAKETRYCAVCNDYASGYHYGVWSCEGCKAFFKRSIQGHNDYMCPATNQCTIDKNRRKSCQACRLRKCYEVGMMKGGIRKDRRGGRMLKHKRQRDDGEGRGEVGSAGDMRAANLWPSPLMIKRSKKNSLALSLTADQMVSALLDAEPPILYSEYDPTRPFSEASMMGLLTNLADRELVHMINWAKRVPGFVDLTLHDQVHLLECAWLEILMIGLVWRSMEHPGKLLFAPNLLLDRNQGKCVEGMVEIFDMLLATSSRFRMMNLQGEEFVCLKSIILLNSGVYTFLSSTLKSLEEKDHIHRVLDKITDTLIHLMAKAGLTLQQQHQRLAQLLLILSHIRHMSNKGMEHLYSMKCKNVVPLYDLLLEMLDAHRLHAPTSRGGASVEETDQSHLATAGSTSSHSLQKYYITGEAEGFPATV
- Method Notes: Estrogen receptor degradation activity: breast cancer cell ERα in cell western assay in MCF7 cells
- Format: cell-based
- Measurement Conditions: 0.3 μM, 4 hours, relative to fulvestrant 0.1 μM positive control
Quantity: % Degradation At 0.3 μM (%)
Answers are plain numbers, in %.

Past entries and their recorded results:
INSERT INTO assay_data (structure_notation, uom, endpoint_value) VALUES
  ('O=C(O)c1ccc2c(c1)CCCC(c1ccccc1Cl)=C2c1cccc(O[C@@H]2CCN(CCCF)C2)c1', '%', 84),
  ('FCCCN1CC[C@@H](Oc2cccc(C3=C(c4ccccc4Cl)CCCc4ccccc43)c2)C1', '%', 78),
  ('Cl.O=C(O)c1ccc2c(c1)CCCC(c1ccc(Cl)cc1Cl)=C2c1cccc(O[C@@H]2CCN(CCCF)C2)c1F', '%', 85),
  ('Cl.O=C(O)c1ccc2c(c1)CCCC(c1ccc(Cl)cc1Cl)=C2c1cccc(OC2CN(CCCF)C2)c1', '%', 55),
  ('Cl.O=C(O)c1ccc2c(c1)CCCC(c1ccccc1)=C2c1cccc(O[C@@H]2CCN(CCCF)C2)c1F', '%', 82),
  ('O=C(O)c1ccc2c(c1)CCCC(c1ccc(F)cc1Cl)=C2c1cccc(O[C@@H]2CCN(CCCF)C2)c1', '%', 91);

Summary for this compound, `Cc1ccc(C2=C(c3cccc(O[C@@H]4CCN(CCCF)C4)c3)c3ccc(C(=O)O)cc3CCC2)c(F)c1` : % Degradation At 0.3 μM is 85

----------
- Experimental System: ERα (Homo sapiens, UniProt P03372)
- Construct: made using a breast cancer cell ERα in cell western assay; host or cells: MCF7
- Sequence (P03372 1-595): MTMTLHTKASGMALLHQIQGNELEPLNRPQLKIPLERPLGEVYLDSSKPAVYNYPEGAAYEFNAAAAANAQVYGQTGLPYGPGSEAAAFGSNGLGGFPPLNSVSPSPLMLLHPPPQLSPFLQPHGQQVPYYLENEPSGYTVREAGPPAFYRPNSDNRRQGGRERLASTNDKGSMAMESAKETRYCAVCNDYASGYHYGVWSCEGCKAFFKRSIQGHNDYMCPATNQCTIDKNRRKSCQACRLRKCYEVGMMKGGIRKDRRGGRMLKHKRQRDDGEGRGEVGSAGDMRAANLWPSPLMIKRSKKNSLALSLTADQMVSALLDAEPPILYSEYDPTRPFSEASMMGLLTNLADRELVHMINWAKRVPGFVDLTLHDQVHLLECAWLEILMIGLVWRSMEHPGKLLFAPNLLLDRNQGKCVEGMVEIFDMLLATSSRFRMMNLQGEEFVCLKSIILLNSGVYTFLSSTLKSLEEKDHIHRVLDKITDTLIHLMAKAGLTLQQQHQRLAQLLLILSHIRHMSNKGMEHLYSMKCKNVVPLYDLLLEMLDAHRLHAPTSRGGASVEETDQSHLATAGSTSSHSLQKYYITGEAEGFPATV
- Method Notes: Estrogen receptor degradation activity: breast cancer cell ERα in cell western assay in MCF7 cells
- Format: cell-based
- Measurement Conditions: 0.3 μM, 4 hours, relative to fulvestrant 0.1 μM positive control
Please respond with reported % Degradation At 0.3 μM for every item in the list.
Answers are plain numbers, in %.

Past entries and their recorded results:
INSERT INTO results (structure_notation, uom, endpoint_value) VALUES
  ('Cl.O=C(O)c1ccc2c(c1)OCCC(c1ccc(Cl)cc1Cl)=C2c1cccc(O[C@@H]2CCN(CCCF)C2)c1', '%', 65),
  ('Cc1cc(F)ccc1C1=C(c2cccc(O[C@@H]3CCN(CCCF)C3)c2C)c2ccc(C(=O)O)cc2CCC1', '%', 78),
  ('O=C(O)c1ccc2c(c1)CCCC(c1ccc(Cl)cc1F)=C2c1cccc(O[C@@H]2CCN(CCCF)C2)c1', '%', 89),
  ('O=C(O)c1ccc2c(c1)CCCC(c1ccc(Cl)cc1Cl)=C2c1cccc(O[C@@H]2CCN(CCCF)C2)c1', '%', 85),
  ('CC1(C)CCC(C2=C(c3cccc(O[C@@H]4CCN(CCCF)C4)c3)c3ccc(C(=O)O)cc3CCC2)CC1.Cl', '%', 57);

# next compound below
Summary for this compound, `O=C(O)c1ccc2c(c1)CCCC(c1ccccc1)=C2c1cccc(O[C@@H]2CCN(CCCF)C2)c1` : % Degradation At 0.3 μM is 81

----------
Please respond with reported % Degradation At 0.3 μM for every item in the list.
- Experimental System: ERα (Homo sapiens, UniProt P03372)
- Construct: made using a breast cancer cell ERα in cell western assay; host or cells: MCF7
- Sequence (P03372 1-595): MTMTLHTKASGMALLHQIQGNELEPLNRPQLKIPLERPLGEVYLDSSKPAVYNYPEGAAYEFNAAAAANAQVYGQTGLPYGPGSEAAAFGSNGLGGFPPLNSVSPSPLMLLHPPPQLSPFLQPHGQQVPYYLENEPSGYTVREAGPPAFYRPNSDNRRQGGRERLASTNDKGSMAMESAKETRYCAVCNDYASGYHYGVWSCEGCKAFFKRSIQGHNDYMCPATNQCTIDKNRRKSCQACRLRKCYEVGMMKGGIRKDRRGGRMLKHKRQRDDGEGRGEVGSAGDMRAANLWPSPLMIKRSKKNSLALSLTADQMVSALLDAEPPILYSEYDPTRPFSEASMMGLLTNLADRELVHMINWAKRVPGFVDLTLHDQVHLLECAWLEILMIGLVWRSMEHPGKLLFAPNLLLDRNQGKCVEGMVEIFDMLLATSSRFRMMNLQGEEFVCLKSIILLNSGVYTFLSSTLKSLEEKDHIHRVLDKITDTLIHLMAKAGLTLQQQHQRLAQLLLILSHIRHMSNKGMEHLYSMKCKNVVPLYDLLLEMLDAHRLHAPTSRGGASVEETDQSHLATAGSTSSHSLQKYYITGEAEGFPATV
- Method Notes: Estrogen receptor degradation activity: breast cancer cell ERα in cell western assay in MCF7 cells
- Assay type: cell-based
- Measurement Conditions: 0.3 μM, 4 hours, relative to fulvestrant 0.1 μM positive control
Where a name gives a salt, the structure may show the parent alone.

Past entries and their recorded results:
INSERT INTO results (compound, endpoint_value) VALUES
  ('CC1CCC(C2=C(c3cccc(OC4CCN(CCCF)C4)c3)c3ccc(C(=O)O)cc3CCC2)CC1 (single isomer, unassigned; isomer 1) [Compound 11]', '76%'),
  ('Cc1c(O[C@@H]2CCN(CCCF)C2)cccc1C1=C(c2ccccc2)CCCc2cc(C(=O)O)ccc21', '80%'),
  ('Cl.O=C(O)c1ccc2c(c1)CCCC(c1ccccc1Cl)=C2c1cccc(OC2CN(CCCF)C2)c1', '57%'),
  ('Cl.O=C(O)c1ccc2c(c1)CCCC(c1ccc(Cl)cc1Cl)=C2c1cc(O[C@@H]2CCN(CCCF)C2)ccc1F', '89%'),
  ('O=C(O)c1ccc2c(c1)CCCC(c1ccccc1Cl)=C2c1cc(O[C@@H]2CCN(CCCF)C2)ccc1F [Compound 26, hydrochloride]', '90%');

# next compound below
Summary for this compound, CC1CCc2cc(C(=O)O)ccc2C(c2cccc(OC3CCN(CCCF)C3)c2)=C1c1cccc(Cl)c1 (single isomer, unassigned; isomer 2) [Compound 37] : % Degradation At 0.3 μM is 67%

----------
- Experimental System: ERα (Homo sapiens, UniProt P03372)
- Construct: made using a breast cancer cell ERα in cell western assay; host or cells: MCF7
- Sequence (P03372 1-595): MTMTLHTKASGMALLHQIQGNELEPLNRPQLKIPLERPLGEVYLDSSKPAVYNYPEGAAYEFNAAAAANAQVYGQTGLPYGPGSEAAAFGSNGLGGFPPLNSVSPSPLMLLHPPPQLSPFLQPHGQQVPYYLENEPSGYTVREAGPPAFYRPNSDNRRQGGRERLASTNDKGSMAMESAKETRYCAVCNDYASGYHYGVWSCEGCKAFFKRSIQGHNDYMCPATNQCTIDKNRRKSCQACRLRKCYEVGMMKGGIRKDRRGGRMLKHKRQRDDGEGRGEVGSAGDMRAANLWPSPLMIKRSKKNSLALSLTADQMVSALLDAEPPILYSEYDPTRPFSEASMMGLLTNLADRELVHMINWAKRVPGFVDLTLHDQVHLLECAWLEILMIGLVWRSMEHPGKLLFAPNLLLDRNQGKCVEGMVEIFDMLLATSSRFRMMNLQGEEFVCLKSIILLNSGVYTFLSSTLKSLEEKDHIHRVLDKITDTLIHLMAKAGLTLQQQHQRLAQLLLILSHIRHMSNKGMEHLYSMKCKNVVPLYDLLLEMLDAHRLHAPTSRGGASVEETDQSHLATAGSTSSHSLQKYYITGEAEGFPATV
- Method Notes: Estrogen receptor degradation activity: breast cancer cell ERα in cell western assay in MCF7 cells
- Format: cell-based
- Measurement Conditions: 0.3 μM, 4 hours, relative to fulvestrant 0.1 μM positive control
Please respond with reported % Degradation At 0.3 μM for every item in the list.
A bare number is not enough; add the unit after it.

Past entries and their recorded results:
INSERT INTO results (compound, endpoint_value) VALUES
  ('CC1CCc2cc(C(=O)O)ccc2C(c2cccc(OC3CCN(CCCF)C3)c2)=C1c1cccc(Cl)c1 (single isomer, unassigned; isomer 1) [Compound 36]', '69%'),
  ('O=C(O)c1ccc2c(c1)CCCC(c1ccc(Cl)cc1Cl)=C2c1cccc(CC2CN(CCCF)C2)c1', '58%');

Summary for this compound, `Cl.O=C(O)c1ccc2c(c1)CCCC(c1ccccc1Cl)=C2c1cccc(O[C@@H]2CCN(CCCF)C2)c1F` : % Degradation At 0.3 μM is 88%
